# MEASURED TARGET: T1, FX activation peptide 12-mer FNQTQPERGDNN (human)
# T1 peptide: FNQTQPERGDNN-biotin
# ASSAY NAME: peptide ELISA
Ends that are not written are not given here.
Outcome: MET for ELISA signal relative to background of at least 0.9; NOT MET for anything lower.

Would you please look over these solved cases?
INSERT INTO results (binder, answer_label) VALUES
  ('Nb 729A04 (VHH, monovalent Nanobody; not shown: C-terminal FLAG3 and HIS6 tag) VHH: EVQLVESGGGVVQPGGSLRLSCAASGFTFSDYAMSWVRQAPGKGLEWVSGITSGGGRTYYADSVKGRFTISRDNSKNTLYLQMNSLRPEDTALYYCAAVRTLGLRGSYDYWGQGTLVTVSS', 'MET'),
  ('Nb 729C08 (VHH, monovalent Nanobody; also called Nb 729008; not shown: C-terminal FLAG3 and HIS6 tag) VHH: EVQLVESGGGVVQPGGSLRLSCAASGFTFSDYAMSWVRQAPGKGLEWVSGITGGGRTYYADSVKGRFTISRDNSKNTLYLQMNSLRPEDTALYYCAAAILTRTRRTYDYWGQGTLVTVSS', 'MET'),
  ('Nb 730C03 (VHH, monovalent Nanobody; also called Nb 730003; not shown: C-terminal FLAG3 and HIS6 tag) VHH: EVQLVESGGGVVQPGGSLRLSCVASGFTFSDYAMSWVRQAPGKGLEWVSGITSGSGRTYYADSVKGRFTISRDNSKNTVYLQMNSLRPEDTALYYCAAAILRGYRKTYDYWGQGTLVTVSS', 'MET'),
  ('Nb 501A02 (VHH, monovalent control Nanobody; also called control Nanobody; not shown: C-terminal FLAG3 and HIS6 tag) VHH: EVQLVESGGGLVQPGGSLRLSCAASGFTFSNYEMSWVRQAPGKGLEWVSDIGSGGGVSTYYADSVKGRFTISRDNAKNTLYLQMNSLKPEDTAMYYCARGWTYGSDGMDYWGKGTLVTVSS', 'NOT MET');

Task: # bool: ELISA signal relative to background of Nb 701D07 (VHH, monovalent Nanobody; not shown: C-terminal FLAG3 and HIS6 tag) VHH: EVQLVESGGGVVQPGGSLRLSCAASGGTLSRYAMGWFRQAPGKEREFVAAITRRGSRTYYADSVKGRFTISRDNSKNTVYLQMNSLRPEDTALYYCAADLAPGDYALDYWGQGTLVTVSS >= 0.9
Output: NOT MET

Task: # bool: ELISA signal relative to background of Nb 702C12 (VHH, monovalent Nanobody; not shown: C-terminal FLAG3 and HIS6 tag) VHH: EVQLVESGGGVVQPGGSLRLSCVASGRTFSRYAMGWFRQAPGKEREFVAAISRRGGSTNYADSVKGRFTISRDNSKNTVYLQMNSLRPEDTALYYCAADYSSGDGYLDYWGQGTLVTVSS >= 0.9
Output: MET

Data provenance: patent US20210054097A1
